# Inhibition Rate of Human PAI-1 Activity (%) listing for each entry below
Biological target: recombinant human PAI-1 (Homo sapiens)
Sequence (P05121 24-402): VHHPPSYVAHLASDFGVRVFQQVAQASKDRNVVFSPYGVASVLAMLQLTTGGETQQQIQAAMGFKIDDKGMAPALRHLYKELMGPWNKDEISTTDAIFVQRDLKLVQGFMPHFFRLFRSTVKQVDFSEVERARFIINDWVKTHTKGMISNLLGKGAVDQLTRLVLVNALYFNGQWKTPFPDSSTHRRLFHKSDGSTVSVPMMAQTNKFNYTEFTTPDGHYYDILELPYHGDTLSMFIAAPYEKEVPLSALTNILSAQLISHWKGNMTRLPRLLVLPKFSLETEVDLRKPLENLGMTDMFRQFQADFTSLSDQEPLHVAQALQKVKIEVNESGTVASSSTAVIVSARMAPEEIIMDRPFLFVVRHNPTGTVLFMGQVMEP
Test: Test Example 1: human PAI-1 inhibitory activity (tPA fluorogenic substrate, pH7.5 Tris buffer)
Type: biochemical
Set-up: purchased Molecular Innovations, Inc
Conditions: compound 25 μM; Tris buffer pH7.5
Write it as a number; the unit % goes unstated.

Take a look at these entries with their results.
In: Give recombinant human PAI-1 (Homo sapiens) Inhibition Rate of Human PAI-1 Activity (%) for CC(C)(C)c1ccc(COc2ccc(-c3ccc(OC(F)(F)F)cc3)cc2/C=C\C(=O)O)cc1 [Compound 30]
Out: 93

In: Give recombinant human PAI-1 (Homo sapiens) Inhibition Rate of Human PAI-1 Activity (%) for CC(C)(C)c1ccc(COc2ccc(-c3ccc(F)cc3)cc2CCC(=O)O)cc1 [Compound 39]
Out: 99

In: Give recombinant human PAI-1 (Homo sapiens) Inhibition Rate of Human PAI-1 Activity (%) for CC(C)(C)c1ccc(COc2ccc(-c3cccc(OC(F)(F)F)c3)cc2CCC(=O)O)cc1 [Compound 71]
Out: 95

In: Give recombinant human PAI-1 (Homo sapiens) Inhibition Rate of Human PAI-1 Activity (%) for O=C(O)CCc1cc(-c2ccc(OC(F)(F)F)cc2)ccc1OCc1ccc(Cl)cc1Cl [Compound 32]
Out: 92

In: Give recombinant human PAI-1 (Homo sapiens) Inhibition Rate of Human PAI-1 Activity (%) for CC(C)(C)c1ccc(COc2ccc(-c3ccc(C(F)(F)F)cc3)cc2CCC(=O)O)cc1 [Compound 41]
Out: 99

In: Give recombinant human PAI-1 (Homo sapiens) Inhibition Rate of Human PAI-1 Activity (%) for CC(C)(C)c1ccc(-c2ccc(OCc3ccc(C(F)(F)F)cc3)c(CCC(=O)O)c2)cc1 [Compound 77]
Out: 95

In: Give recombinant human PAI-1 (Homo sapiens) Inhibition Rate of Human PAI-1 Activity (%) for CC(C)(C)c1ccc(COc2ccc(-c3ccc(F)cc3)cc2/C=C/C(=O)O)cc1 [Compound 38]
Out: 96

In: Give recombinant human PAI-1 (Homo sapiens) Inhibition Rate of Human PAI-1 Activity (%) for CC(C)(C)c1ccc(COc2ccc(-c3cccc(OC(F)(F)F)c3)cc2/C=C/C(=O)O)cc1 [Compound 70]
Out: 93

Further cases:
In: Give recombinant human PAI-1 (Homo sapiens) Inhibition Rate of Human PAI-1 Activity (%) for COc1ccc(-c2ccc(OCc3ccc(C(C)(C)C)cc3)c(CCC(=O)O)c2)cc1 [Compound 43]
Out: 93

In: Give recombinant human PAI-1 (Homo sapiens) Inhibition Rate of Human PAI-1 Activity (%) for CC(C)(C)c1ccc(COc2ccc(-c3ccc(C(F)(F)F)cc3)cc2/C=C/C(=O)O)cc1 [Compound 40]
Out: 95

In: Give recombinant human PAI-1 (Homo sapiens) Inhibition Rate of Human PAI-1 Activity (%) for COc1ccc(COc2ccc(-c3ccc(OC(F)(F)F)cc3)cc2CCC(=O)O)cc1 [Compound 66]
Out: 25

In: Give recombinant human PAI-1 (Homo sapiens) Inhibition Rate of Human PAI-1 Activity (%) for CC(C)(C)c1ccc(COc2ccc(-c3ccccc3)cc2CCC(=O)O)cc1 [Compound 37]
Out: 97

In: Give recombinant human PAI-1 (Homo sapiens) Inhibition Rate of Human PAI-1 Activity (%) for CC(C)(C)c1ccc(-c2ccc(OCc3ccc(OC(F)(F)F)cc3)c(/C=C/C(=O)O)c2)cc1 [Compound 56]
Out: 94

In: Give recombinant human PAI-1 (Homo sapiens) Inhibition Rate of Human PAI-1 Activity (%) for CC(C)(C)c1ccc(COc2ccc(-c3ccccc3OC(F)(F)F)cc2/C=C/C(=O)O)cc1 [Compound 72]
Out: 93

Sourced from patent US8044236B2
